Here, each record is paired with measured growth inhibition data.
# Protocol Notes: NCI Yeast Anticancer Drug Screen. Data for the sgs1 mgt1 strain (AID 161);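 note: 0% = growth of cultures given vehicle only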
# Reported Conditions: S. cerevisiae sgs1 mgt1 strain, at 50.0 µM, active compounds read high
About 79,000 compounds went through this panel and 15% of them were active in at least one assay; those are over-represented in the sample as a whole.
Give the quantity in %, number only.

Look over these answered cases.
Molecule: CCCCCCSc1ccc([N+](=O)[O-])cc1[N+](=O)[O-]
Measured Property: growth inhibition
Reported Measurement: -10.6

Molecule: C=C1C(=O)O[C@@H]2/C=C(/C)[C@@H](OC(C)=O)C[C@@H](O)/C(C)=C\[C@@H](OC(=O)[C@]3(C)O[C@@H]3C)[C@@H]12
Measured Property: growth inhibition
Reported Measurement: 16.2

Molecule: CN(C)/C=C/c1nnnn1-c1ccc(I)cc1
Measured Property: growth inhibition
Reported Measurement: 24.8

Molecule: CCOC(=O)c1c(C(=O)Nc2ccccc2)c(-c2ccccc2)n(NC(N)=O)c1C
Measured Property: growth inhibition
Reported Measurement: 0.5

Molecule: COC(OC)c1cccc2c1C(=O)CCC1(CC2)OCCCCO1
Measured Property: growth inhibition
Reported Measurement: -22.8

Ask: growth inhibition for Cn1c(N)c(NC(=O)CC#N)c(=O)n(C)c1=O ?
Result: 27.3

Ask: Next: O=C(O)c1ccccc1C(=O)Cc1ccccc1
Result: -6.7

Ask: Queued: CC(=O)N(C(C)=O)c1cc2c3c(c1)CCCN3CCC2
Result: -22.1

Ask: Another molecule: O=C(OC1CCc2ccccc2C1)c1ccc(N=Nc2ccccc2)cc1 (centres undefined)
Result: 20.7

Ask: What do you get for Nc1c2ccccc2nc2c(C(=O)Nc3ccc(S(N)(=O)=O)cc3)cccc12 ?
Result: -1.45

Ask: Same lookup for CCOC(=O)\C(C#N)=C/C=C(C)/C(C)=C/Nc1ccc([N+](=O)[O-])cc1[N+](=O)[O-] , please.
Result: -18.4

* * *

# Protocol Notes: NCI Yeast Anticancer Drug Screen. Data for the mlh1 rad18 strain (AID 175)
# Reported Conditions: S. cerevisiae mlh1 rad18 strain growth inhibition; at 50.0 µM; active compounds read high
This is part of a sample that, as a whole, favours compounds with a hit. Of some 79,000 tested, about 15% had one in any assay. Where a SMILES comes first, the peptide text is derived from it.
Measured Property: growth inhibition (%)
Dear colleague, please return just the value in %, with no unit written.

Solved cases below.
Compound: CCOC(=O)c1cc2nc(NC(=O)c3ccccc3)sc2n1C
growth inhibition / %: 16.8

Compound: O=C(NCCNCCO)N/N=C/c1ccc([N+](=O)[O-])cc1
growth inhibition / %: -3.65

Compound: CC1NC(=O)C2CCCN2C(=O)C2CCCN2C(=O)C(C(C)C)NC(=O)C(Cc2ccccc2)NC(=O)C(Cc2ccccc2)NC(=O)C2CCCN2C(=O)C2CCCN2C(=O)C(Cc2ccccc2)NC(=O)C(Cc2ccccc2)NC1=O (stereo not given) (cyclo(AFFPPFFVPP); configuration not given here)
growth inhibition / %: 16.6

Compound: Cc1cc(=O)[nH]c(NN)n1
growth inhibition / %: 2.15

Compound: COc1ccc(C(O)C2CCCN(C)S2(=O)=O)cc1 (stereo not given)
growth inhibition / %: 15.6

Compound: N#CC(NCCc1ccccc1)c1ccccc1 (stereo not given)
growth inhibition / %: -3.95

Compound: NC(CSc1nc2ccccn2c1[N+](=O)[O-])C(=O)O (stereo not given)
growth inhibition / %: -18

Compound: O=C(O)Cn1ccc(=O)c2c([N+](=O)[O-])cccc21
growth inhibition / %: -51.6

Ask: Item COC1(OC)C2(Cl)CCC1(Cl)C(OC(C)=O)C2 (stereo not given) has what recorded growth inhibition?
Result: -10.7

Ask: Please give the result for NSC(=S)NCc1ccco1 too.
Result: 13.7
